# key: entry, value: inhibition at 1 µM
Target: recombinant human 17β-HSD2 (Homo sapiens)
Construct: made in house; host or cells: Sd9 (Sf9) insect cells, baculovirus (Bac to Bac Expression System)
Sequence (P37059 whole entry): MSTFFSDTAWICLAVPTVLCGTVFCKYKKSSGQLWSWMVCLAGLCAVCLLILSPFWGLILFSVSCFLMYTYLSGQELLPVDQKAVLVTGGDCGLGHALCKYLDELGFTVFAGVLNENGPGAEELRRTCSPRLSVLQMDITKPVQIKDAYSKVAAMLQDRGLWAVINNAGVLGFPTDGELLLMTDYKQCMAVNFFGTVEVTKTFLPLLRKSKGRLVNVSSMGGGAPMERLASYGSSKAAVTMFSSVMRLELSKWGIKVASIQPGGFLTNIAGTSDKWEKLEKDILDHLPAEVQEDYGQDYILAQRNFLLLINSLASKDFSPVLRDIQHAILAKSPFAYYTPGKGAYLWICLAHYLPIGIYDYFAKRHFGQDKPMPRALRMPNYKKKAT
Assay: Inhibition of recombinant human 17β-HSD2 (estradiol to estrone conversion, HPLC/radioactivity)
Type: biochemical
Settings: compound 1 μM; 50 nM estradiol, 1 mM NADH, 30 min RT
REPORTED_ENDPOINT: inhibition at 1 µM (%)

| COMPOUND | RESULT_UNIT | TEST_RESULT |
| --- | --- | --- |
| C[C@]12CCC3c4ccccc4CCC3C1[C@H](CCC(=O)Nc1cc(F)ccn1)c1c[nH]nc12 (stereo partly shown) [Compound 162] | % | 9 |
| C[C@]12CCC3c4cccc(F)c4CCC3C1[C@H](CCC(=O)Nc1cnccn1)c1c[nH]nc12 (stereo partly shown) [Compound 51] | % | 1 |
| Cc1nnc(NC(=O)CC[C@@H]2c3c[nH]nc3[C@@]3(C)CCC4c5cccc(F)c5CCC4C23)o1 (stereo partly shown) [Compound 66] | % | 3 |
| C[C@]12CCC3c4ccccc4CCC3C1[C@H](CCC(=O)N1CCCC1)c1c[nH]nc12 (stereo partly shown) [Compound 147] | % | 11 |
| Cc1ccnc(NC(=O)CC[C@@H]2c3c[nH]nc3[C@@]3(C)CCC4c5cccc(F)c5CCC4C23)c1 (stereo partly shown) [Compound 27] | % | 2 |
| C[C@]12CCC3c4ccc(Cl)cc4CCC3C1[C@H](CCC(=O)Nc1cccc(F)n1)c1c[nH]nc12 (stereo partly shown) [Compound 135] | % | 2 |
| CN(CC1CC1)C(=O)CC[C@@H]1c2c[nH]nc2[C@@]2(C)CCC3c4cccc(F)c4CCC3C12 (stereo partly shown) [Compound 60] | % | 9 |

###

Target: recombinant human 17β-HSD2 (Homo sapiens)
Construct: made in house; host or cells: Sd9 (Sf9) insect cells, baculovirus (Bac to Bac Expression System)
Experiment: Inhibition of recombinant human 17β-HSD2 (estradiol to estrone conversion, HPLC/radioactivity)
Format: biochemical
Conditions: compound 1 μM; 50 nM estradiol, 1 mM NADH, 30 min RT
Recorded inhibition at 1 µM for the following compounds
REPORTED_ENDPOINT: inhibition at 1 µM

| COMPOUND | TGT | REPORTED_ENDPOINT | TEST_RESULT |
| --- | --- | --- | --- |
| Cc1ccc(NC(=O)CC[C@@H]2c3c[nH]nc3[C@@]3(C)CCC4c5ccc(F)cc5CCC4C23)nn1 (stereo partly shown) | recombinant human 17β-HSD2 (Homo sapiens) | inhibition at 1 µM | 1% |
| Cc1ccc(NC(=O)CC[C@@H]2c3c[nH]nc3[C@@]3(C)CCC4c5ccccc5CCC4C23)nn1 (stereo partly shown) | recombinant human 17β-HSD2 (Homo sapiens) | inhibition at 1 µM | 10% |
| COc1ccc(NC(=O)CC[C@@H]2c3c[nH]nc3[C@@]3(C)CCC4c5ccccc5CCC4C23)nc1 (stereo partly shown) | recombinant human 17β-HSD2 (Homo sapiens) | inhibition at 1 µM | -1% |
| C[C@]12CCC3c4cccc(F)c4CCC3C1[C@H](CCC(=O)N1CCC3(CCOCC3)C1)c1c[nH]nc12 (stereo partly shown) | recombinant human 17β-HSD2 (Homo sapiens) | inhibition at 1 µM | 3% |
